Every entry's value here was drawn from patent US9353107B2.

Target: recombinant human ALK enzyme (ALK WT) (Homo sapiens, UniProt Q9UM73)
Construct: purchased Carna Biosciences 08-518
Sequence (Q9UM73 1058-1620 limits assumed): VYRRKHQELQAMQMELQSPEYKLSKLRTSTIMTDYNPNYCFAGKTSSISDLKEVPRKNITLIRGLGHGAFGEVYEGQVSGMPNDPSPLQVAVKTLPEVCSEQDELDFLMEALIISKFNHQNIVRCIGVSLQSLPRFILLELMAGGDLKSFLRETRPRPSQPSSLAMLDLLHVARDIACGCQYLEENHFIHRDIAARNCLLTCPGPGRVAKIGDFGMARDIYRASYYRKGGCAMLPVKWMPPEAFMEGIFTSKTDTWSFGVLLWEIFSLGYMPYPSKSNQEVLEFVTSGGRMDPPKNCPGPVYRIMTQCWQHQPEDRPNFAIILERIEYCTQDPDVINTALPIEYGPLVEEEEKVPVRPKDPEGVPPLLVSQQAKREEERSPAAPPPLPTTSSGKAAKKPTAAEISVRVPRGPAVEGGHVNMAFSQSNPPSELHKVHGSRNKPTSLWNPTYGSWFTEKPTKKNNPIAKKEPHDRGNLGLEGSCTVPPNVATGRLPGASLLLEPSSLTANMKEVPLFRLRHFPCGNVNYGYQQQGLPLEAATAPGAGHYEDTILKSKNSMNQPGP
Assay: ALK WT cell free enzymatic assay (TR-FRET)
Assay type: biochemical
Conditions: compound at 100 nM; 30 min pre-incubation; 1 μM ATP
Recorded inhibition at 0.1 µM for the following molecules
Give just the number in %; leave the unit off.

Recorded inhibition at 0.1 µM, per entry:
Fc1cccc(Cn2cc(-c3c[nH]c4ncc(-c5ccc(N6CCNCC6)nc5)cc34)cn2)c1; 100
COc1ccc(-c2cnc3[nH]c(C4CC4)c(-c4c(C)nn(Cc5cccc(F)c5)c4C)c3c2)cc1NS(C)(=O)=O; 21
Cc1nn(Cc2cccc(F)c2)c(C)c1-c1c(C2CC2)[nH]c2ncc(-c3ccc(N4CCNCC4)cc3)cc12; 15
Cc1nn(Cc2cccc(F)c2)c(C)c1-c1c[nH]c2ncc(-c3ccc(OCCCO)c(NS(C)(=O)=O)c3)cc12; 86
CN1CCN(c2cccc(-c3cnc4[nH]cc(-c5cnn(Cc6cccc(F)c6)c5)c4c3)c2)CC1; 96

Which inhibition at 0.1 µM is reported for this molecule? Fc1cccc(Cn2cc(-c3c[nH]c4ncc(-c5ccc(C6CCNCC6)c(F)c5)cc34)cn2)c1
98

What value of inhibition at 0.1 µM has been reported for the following molecule? O=C(CO)N1CCN(c2ccc(-c3cnc4[nH]cc(-c5cnn(Cc6cccc(F)c6)c5)c4c3)cc2)CC1
92

Query: inhibition at 0.1 µM; subject: COc1ccc(-c2cc3c(-c4c(C)nn(Cc5cccc(F)c5)c4C)c[nH]c3nc2C2CC2)cc1NS(C)(=O)=O
14

Returns the measured inhibition at 0.1 µM for the input molecule. Input: CS(=O)(=O)Nc1cc(-c2cnc3[nH]cc(-c4ccn(Cc5cc(F)cc(F)c5)n4)c3c2)ccc1C1CCNCC1
86

Record request: inhibition at 0.1 µM value, item C[C@H](O)CN1CCC(c2ccc(-c3cnc4[nH]cc(-c5cnn(Cc6cccc(F)c6)c5)c4c3)cn2)CC1 [Example 102A]
91

Requested field: inhibition at 0.1 µM. Item: Cc1nn(Cc2cccc(F)c2)c(C)c1-c1c[nH]c2ncc(-c3ccc(N4CCN(CCO)CC4)cc3)cc12
90

* * *

Below: a set of entries, each annotated with reported inhibition at 0.1 µM.
Biological target: recombinant human ALK enzyme (ALK WT) (Homo sapiens)
Construct: purchased Carna Biosciences 08-518
Experiment: ALK WT cell free enzymatic assay (TR-FRET)
Assay type: biochemical
Details: compound at 100 nM; 30 min pre-incubation; 1 μM ATP

Check out these entries, answers already filled in.
CN(C)CC(=O)N1CCN(c2ccc(-c3cnc4[nH]cc(-c5cnn(Cc6cccc(F)c6)c5)c4c3)cn2)CC1; 99%
CS(=O)(=O)Nc1cccc(-c2cnc3[nH]cc(-c4cnn(Cc5cccc(N)c5)c4)c3c2)c1; 81%
COc1ccc(-c2cnc3[nH]cc(-c4cnn(Cc5cccnc5)c4)c3c2)cc1NS(C)(=O)=O; 76%
Fc1cccc(Cn2cc(-c3c[nH]c4ncc(-c5ccc(N6CCNCC6)c(F)c5)cc34)cn2)c1; 99%
Cc1cccc(Cn2cc(-c3c[nH]c4ncc(-c5ccc(N6CCN(C[C@H](C)O)CC6)nc5)cc34)cn2)c1; 83%
COc1ccc(-c2cnc3[nH]cc(-c4cnn(CCc5ccccc5F)c4)c3c2)cc1NS(C)(=O)=O; 51%

What is its inhibition at 0.1 µM for recombinant human ALK enzyme (ALK WT) (Homo sapiens)? Entry: Cc1nn(Cc2cccc(F)c2)c(C)c1-c1c[nH]c2ncc(-c3cnc(O)c(NS(C)(=O)=O)c3)cc12
38%
